Target: T1, biotinylated B Lymphocyte Stimulator, soluble form (human, UniProt Q9Y275 134-285, biotinylated with NHS-biotin, molar ratio 20:1 biotin:protein)
T1 construct: also called bio-B Lymphocyte Stimulator; free B Lymphocyte Stimulator
Assay: phage scFv, receptor binding inhibition on IM9 cells
Property Label: binding result

Recorded result, I006D08 (scFv) scFv: QVQLQQSGAEVKKPGSSVRVSCKASGGTFNNNAINWVRQAPGQGLEWMGGIIPMFGTAKYSQNFQGRVAITADESTSTASMELSSLRSEDTAVYYCARSRDLLLFPHYGMDVWGRGTMVTVSSGGGGSGGGGSGGGGSAFSSELTQDPAVSVALGQTVRVTCQGDSLRSYYASWYQQKPGQAPVLVIYGKNNRPSGIPDRFSGSSSGNTASLTITGAQAEDEADYYCNSRDSSGNHWVFGGGTELTVLG , binding result: binds

Recorded result, I007H08 (scFv) scFv: QVQLQQSGPGLVKPSQILSLTCAISGDSVASNGAAWNWIRQSPSRGLEWLGRTYYRSKWYVDYAVSVKSRITINPDTSKNQFSLQLNSVTPEDTAVYYCARDRYDILTGYYYYGMDVWGQGTMVTVSSGGGGSGGGGSGGGGSQSALTQPASVSGSRGQSITISCTGTTGDVGGYDYVSWYQQHPGKAPKLLIYGNSNRPSGVPDRFSASKSGNTASLTISGLQAEDEADYFCNTYAPPGIIMFGGGTKLTVLG , binding result: binds
